# log10(solubility kinetic) values compiled below
- REPORTED_CONDITIONS: buffer; pH 7.4; 200.0 µM
ASSAY_ENDPOINT: log10(solubility kinetic) (log10 of the value in µg/mL)

COMPOUND	OBSERVED
N#CCCN(C(=O)COC(=O)c1ccc2c(c1)OCCO2)c1ccccc1	1.72
COc1ccc(/C=C/C(=O)O)cc1S(=O)(=O)NCc1ccco1	1.69
COc1ccc(S(=O)(=O)n2cnc3ccccc32)c(C)c1	1.23
CCOc1ccc(C(=O)NCC(=O)NCCOc2ccc(C)cc2)cc1	1.02
Cc1ccc(S(=O)(=O)NC(CC(=O)O)c2ccc(F)cc2)cc1 (stereo unspecified)	1.54
CN1CCN(CCOc2ccc(Cc3ccccc3)cc2)CC1.Cl	1.61
CC1Cc2ccccc2N1C(=O)COC(=O)c1ccc(O)cc1 (stereo unspecified)	0.71
O=C(Nc1nccs1)C1(c2ccc(Cl)cc2)CC1	1.15
CN(C(=O)COC(=O)c1cccc(F)c1)c1ccccc1	1.51
O=C(O)C(NS(=O)(=O)c1cccc2nsnc12)c1ccccc1 (stereo unspecified)	1.68
COc1ccccc1CNS(=O)(=O)c1ccc(Br)s1	1.51
Nc1ccccc1S(=O)(=O)NCCCCc1ccccc1	1.46
COc1ccccc1C1CCN(Cc2ccccc2Cl)CC1	0.56
Cc1cnc(C(=O)OCc2ccc(Br)cc2)cn1	1.28
O=C(Nc1cccnc1)c1ccc(N2CCOCC2)c([N+](=O)[O-])c1	1.61
COc1ccsc1NC(=O)OCc1ccc(Cl)cc1	1.29
Fc1ccc(C2CCCN2Cc2nc(Cc3ccccc3F)no2)cc1 (stereo unspecified)	1.06
O=C1COc2ccc(S(=O)(=O)N3CCc4ccccc43)cc2N1	0.38
O=C(COc1ccccc1)Nc1ccc(NC(=O)c2ccco2)cc1	0.41
O=C(CCNC(=O)c1ccc(Cl)cc1)Nc1ncccc1O	1.65
CCN(CC)C(=O)Oc1cc(COC)nc(-c2ccccc2)n1	1.60
O=C(Cc1ccc(Br)cc1)N1CCOCC1	1.59
COc1ccc(-c2cc(CS(=O)(=O)c3ccccc3)on2)cc1	-0.15
COC(=O)Cn1c(C)nc([N+](=O)[O-])c1Br	1.50
CCN(CC)S(=O)(=O)c1ccc(NC(=S)NC(=O)C2CCC2)cc1	1.27
O=C(NCCC1=CCCCC1)C1CCN(S(=O)(=O)N2CCCC2)CC1	1.71

* * *

- REPORTED_CONDITIONS: buffer; pH 7.4; 200.0 µM
ASSAY_ENDPOINT: solubility kinetic

MOLECULE	OBSERVED
COc1ccccc1CC(=O)Nc1cccc(C)n1	> 38.4 µg/mL
O=C(COc1ccc(Br)cc1F)NC1CC1	> 43.2 µg/mL
Cc1c(NCc2ccncc2)cccc1C(=O)O	> 36.3 µg/mL
CC(C)NC(=O)COc1nncc2ccccc12	> 36.8 µg/mL
O=C(CSc1ccccc1C(=O)O)NC1CCCCCC1	> 46.1 µg/mL
O=C1CC(NC(=O)c2ccc(Cl)cc2)C(=O)N1 (configuration not stated)	> 37.9 µg/mL
CCCn1c(=O)c2ccccc2n2c(=S)[nH]nc12	> 39 µg/mL

* * *

- REPORTED_CONDITIONS: buffer; pH 7.4; 200.0 µM

CHEM_SMILES	solubility kinetic
COc1ccc(NC(=O)CCCn2cnc3ccccc3c2=O)cc1	> 0.0506 mg/mL
Cc1ccc(NC(=O)CNC(=O)c2cccs2)nc1	> 0.0413 mg/mL
O=C(CCCOc1ccc(Cl)cc1Cl)Nc1ccccc1C(=O)O	> 0.0552 mg/mL

* * *

- REPORTED_CONDITIONS: buffer; pH 7.4; 200.0 µM

COMPOUND	solubility kinetic
CCCC1(c2ccccc2)NC(=O)N(CC(=O)Nc2ccc(N3CCOCC3)cc2)C1=O (stereo not drawn)	> 65.5 µg/mL
COc1ccc(CNC(=O)c2cc(=O)c3cc(C)cc(C)c3o2)cc1	< 0.7 µg/mL
CNC(=S)N1CCc2cc(OC)c(OC)cc2C1	> 40 µg/mL
CCOC(=O)c1cn2nc(Oc3cccc(F)c3)ccc2n1	> 45.2 µg/mL
CCOC(=O)CC1COCCN1Cc1cn(C)nc1-c1ccccc1F (stereo not drawn)	> 54.2 µg/mL
Cc1ccc(C(=O)OCC(=O)NCCN2C(=O)CSC2=O)cc1[N+](=O)[O-]	> 57.2 µg/mL
CCc1ccc(N2CC(C(=O)NC3CC3)CC2=O)cc1 (stereo not drawn)	> 40.9 µg/mL
CCN(CC)S(=O)(=O)c1ccc(N2CCOCC2)c(NC(=O)c2ccc(=O)[nH]c2)c1	> 65.2 µg/mL
Cc1ccc(NC(=O)Nc2cccc3ccccc23)cc1	< 0.3 µg/mL
Cc1ccc(C(CC(=O)N2CCCC2)c2ccccc2)c(O)c1 (stereo not drawn)	> 46.4 µg/mL
COc1ccccc1/C=C/C(=O)OCC(=O)NC1CCS(=O)(=O)C1 (stereo not drawn)	> 53 µg/mL
Cc1ccc(Nc2nc(Cl)nc(NC3CCCCC3)n2)cc1	< 0.1 µg/mL
CCn1cnc2cc(NCc3ccccc3Cl)ccc21	> 42.9 µg/mL
COc1cc(NC(=S)Nc2ccc3c(c2)OCCO3)cc(OC)c1OC	> 56.5 µg/mL
COc1cccc(NC(=O)N2C3CCCC2CC(NC(C)=O)C3)c1 (stereo not drawn)	> 49.7 µg/mL
CCC1CCCCN1C(=O)CSc1nc(C)cc(C)n1 (stereo not drawn)	> 44 µg/mL
CN(Cc1nc2ccccc2c(=O)[nH]1)C(=O)c1cccc(NC(=O)c2cccs2)c1	> 62.8 µg/mL
CCOc1ncccc1C(=O)Nc1c(C)n(C)n(-c2ccccc2)c1=O	> 52.9 µg/mL

* * *

- REPORTED_CONDITIONS: buffer; pH 7.4; 200.0 µM
# solubility kinetic values compiled below
ASSAY_ENDPOINT: solubility kinetic

CHEM_SMILES	OBSERVED
Cc1onc(-c2c(F)cccc2Cl)c1C(=O)N1CCCCC1	> 48.4 µg/mL
CN1C[C@@H]2C[C@@H](c3cccn3-c3ccccn3)N3CCC[C@@]23C1=O	> 48.4 µg/mL
CN(C)CCCNc1nc(N)c([N+](=O)[O-])c(NC2CCCCC2)n1	> 50.6 µg/mL
COc1ccc(C(=O)O)cc1NCc1ccc(C)s1	> 41.6 µg/mL

* * *

- REPORTED_CONDITIONS: buffer; pH 7.4; 200.0 µM
Tag: y if measured solubility kinetic is not below 20 µg/mL, n if it is.

MOLECULE	DISCRETE_LABEL
CN(Cc1ccccc1)S(=O)(=O)c1ccc(Cl)c(C(=O)O)c1	y
Cc1cnc(C(=O)OCC(=O)c2ccc[nH]2)cn1	y
CCOC(=O)COc1nc(-c2ccc(Cl)cc2)cc(-c2ccco2)c1C#N	n
N#CC1CCCc2c1[nH]c1ccc([N+](=O)[O-])cc21 (stereo not drawn)	y
C=CCNC(=S)Nc1nc2c(cc1C(=O)OCC)COC(C)(C)C2	n
Cc1ccc(NC(=O)CN(C)Cc2c(O)ccc3ccccc23)cc1	y
CC(=O)N1c2ccccc2C(=O)C1N(C)c1ccc(C)cc1 (stereo not drawn)	n
O=C(NCc1ccco1)c1ccc2c(c1)OCCO2	y
COc1ccc(/C=C(/NC(=O)c2ccccc2)C(=O)N2CCCC2)cc1	y
Cc1ccc(S(=O)(=O)CCC(=O)Nc2sccc2C(N)=O)cc1	y
COc1cccc(C2(O)C(=O)Nc3ccccc32)c1 (stereo not drawn)	y
Clc1ccc(-c2cc(CN3CCCCC3)no2)cc1Cl	n
Cc1ccc(C(=O)NC2CC(C)(C)NC(C)(C)C2)cc1Cl	y
Cc1noc(C)c1C(=O)OCC(=O)Nc1ncc(Cl)c(C)c1Cl	y
CCOc1ccc(NC(=O)C2CCCN(S(C)(=O)=O)C2)cc1 (stereo not drawn)	n
CCc1nc2sc(C(=O)O)c(N)c2c2c1CCCC2	y
Cc1ccccc1NC(=S)c1ccc2ccccc2n1	n
Cc1cc(Nc2ccc(N(C)C)cc2)n2ncnc2n1	y

* * *

# solubility kinetic values compiled below
- REPORTED_CONDITIONS: buffer; pH 7.4; 200.0 µM

COMPOUND	solubility kinetic
CCNC(=O)Nc1cc(OC)c(OC)cc1C(=O)O	> 40.2 µg/mL
CC(=O)c1c2c3c(cccc3n(C)c1=O)C(=O)c1ccccc1-2	< 0.6 µg/mL
O=C(NC1CCCC1)c1c(O)nc2sccn2c1=O	> 41.9 µg/mL
CN(C)CCNC(C(=O)Nc1cc(Cl)cc(Cl)c1)c1ccccc1 (centres undefined)	> 54.9 µg/mL
O=c1[nH]c(=S)n(-c2ccccc2)c(O)c1C=NCCN1CCNCC1	> 53.9 µg/mL
COc1ccc(C(=O)N2CCN(CCc3ccccn3)CC2)cc1.Cl	> 54.3 µg/mL
CCOC(=O)c1sc(NC(=O)CC(C)c2ccccc2)nc1C (centres undefined)	< 0.4 µg/mL
O=C(NCCc1ccccc1)C(=O)NCC1CCNCC1	> 43.4 µg/mL
CCCc1nc(SC)[nH]c(=O)c1C	> 29.7 µg/mL
CSc1ccccc1C(=O)NCCOc1ccccc1C	> 45.2 µg/mL
COc1ccc(N2CC(C(=O)NC3=NCCS3)CC2=O)cc1 (centres undefined)	> 47.9 µg/mL
CCN(CC(=O)Nc1c(F)cccc1F)C(=O)c1ccccn1	> 47.9 µg/mL
Cc1cccc(NS(=O)(=O)c2ccc3c(c2)NC(=O)CC(=O)N3)c1	> 51.8 µg/mL
COc1ccccc1S(=O)(=O)Nc1cccc(S(=O)(=O)N2CCCC2)c1	> 59.5 µg/mL
